- System: Jurkat
- assay remarks: Antiproliferative activity against human Jurkat cells assessed as reduction in cell viability after 72 hrs by MTT assay
- Type: functional, cell-based
pIC50: −log10 of the molar value.
Please mark Condition met if the recorded pIC50 is equal to or greater than 5, and Condition not met if it falls below.

Q. pIC50 >= 5 for COc1ccc2c(c1OC)C(=O)O[C@@H]2[C@H]1c2c(c(-c3ccc(C)cc3)c3c(c2OC)OCO3)CCN1C ?
A. Condition met

Q. pIC50 >= 5 for COc1ccc2c(c1OC)C(=O)O[C@@H]2[C@H]1c2c(c(C)c3c(c2OC)OCO3)CCN1C ?
A. Condition met

Q. pIC50 >= 5 for COc1ccc2c(c1OC)C(=O)O[C@@H]2[C@H]1c2c(c(-c3ccc4ccccc4c3)c3c(c2OC)OCO3)CCN1C ?
A. Condition not met

Q. pIC50 >= 5 for COc1ccccc1-c1c2c(c(OC)c3c1OCO3)[C@H]([C@H]1OC(=O)c3c1ccc(OC)c3OC)N(C)CC2 ?
A. Condition not met

Q. pIC50 >= 5 for COc1ccc2c(c1OC)C(=O)O[C@@H]2[C@H]1c2c(c(Br)c3c(c2OC)OCO3)CCN1C ?
A. Condition met

Q. pIC50 >= 5 for COc1ccc2c(c1OC)C(=O)O[C@@H]2[C@H]1c2c(c(-c3ccccc3)c3c(c2OC)OCO3)CCN1C ?
A. Condition met

----------
- system: Tubulin (Bos taurus, UniProt Q6B856+Q862L2+Q862F3)
- assay remarks: Inhibition of bovine brain tubulin assessed as rate of assembly preincubated for 15 mins by turbidimetry
Entries and their IC50 values follow.
Respond numerically; units are µM and should not be typed.

COc1ccc2c(c1OC)C(=O)O[C@@H]2[C@H]1c2c(cc3c(c2OC)OCO3)CCN1C    170

Q. Endpoint output: IC50 of COc1ccc2c(c1OC)C(=O)O[C@@H]2[C@H]1c2c(c(-c3ccc(C)cc3)c3c(c2OC)OCO3)CCN1C . Value?
A. 45

----------
- system: Tubulin (Bos taurus) (UniProt Q6B856+Q862L2+Q862F3)
- assay remarks: Displacement of [3H]colchicine from bovine brain tubulin at 500 uM after 10 mins by liquid scintillation counting
Entries and their inhibition values follow.
Respond numerically; units are % and should not be typed.

Worked cases, inhibition given:
COc1ccc2c(c1OC)C(=O)O[C@@H]2[C@H]1c2c(c(-c3ccc(C)cc3)c3c(c2OC)OCO3)CCN1C    64
COc1ccc2c(c1OC)C(=O)O[C@@H]2[C@H]1c2c(c(Br)c3c(c2OC)OCO3)CCN1C    34

Q. Endpoint output: inhibition of COc1ccc2c(c1OC)C(=O)O[C@@H]2[C@H]1c2c(c(-c3ccccc3)c3c(c2OC)OCO3)CCN1C . Value?
A. 14
